- method-summary: self-splicing fitness, log relative to wild type (ln ratio); higher = more splicing; Tetrahymena group I intron in knt gene, E. coli kanamycin selection, DiMSum; sequences stand for … in CUCUCU…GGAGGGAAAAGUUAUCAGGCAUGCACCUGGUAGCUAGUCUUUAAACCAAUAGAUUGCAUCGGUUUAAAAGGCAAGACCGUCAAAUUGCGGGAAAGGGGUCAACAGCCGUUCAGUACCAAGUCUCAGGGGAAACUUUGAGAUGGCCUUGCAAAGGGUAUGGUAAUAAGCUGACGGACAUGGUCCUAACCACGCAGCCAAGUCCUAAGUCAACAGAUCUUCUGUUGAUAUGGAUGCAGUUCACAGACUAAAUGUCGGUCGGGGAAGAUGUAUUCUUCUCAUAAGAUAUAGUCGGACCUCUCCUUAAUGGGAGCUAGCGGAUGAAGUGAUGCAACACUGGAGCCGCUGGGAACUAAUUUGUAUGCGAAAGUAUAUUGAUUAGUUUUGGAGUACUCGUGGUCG;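 also: selection with 25 µg/mL kanamycin versus none on LB agar overnight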
- test-context: 30 °C
# Lookup of reported self-splicing fitness (ln) keyed by entry
quantity-kind: self-splicing fitness (ln)

{"columns": ["biopolymer-sequence", "quantity-kind", "data-value"],
 "data": [
  ["AUCCAGCAAUAUUACGGGCU", "self-splicing fitness (ln)", -3.07],
  ["UUGGAGCAAUAUUACGGGGC", "self-splicing fitness (ln)", -3.04],
  ["UCGUAGCAAUAUUACGCUAG", "self-splicing fitness (ln)", -2.95]
]}

----------
- method-summary: self-splicing fitness, log relative to wild type (ln ratio); higher = more splicing; Tetrahymena group I intron in knt gene, E. coli kanamycin selection, DiMSum; sequences stand for … in CUCUCU…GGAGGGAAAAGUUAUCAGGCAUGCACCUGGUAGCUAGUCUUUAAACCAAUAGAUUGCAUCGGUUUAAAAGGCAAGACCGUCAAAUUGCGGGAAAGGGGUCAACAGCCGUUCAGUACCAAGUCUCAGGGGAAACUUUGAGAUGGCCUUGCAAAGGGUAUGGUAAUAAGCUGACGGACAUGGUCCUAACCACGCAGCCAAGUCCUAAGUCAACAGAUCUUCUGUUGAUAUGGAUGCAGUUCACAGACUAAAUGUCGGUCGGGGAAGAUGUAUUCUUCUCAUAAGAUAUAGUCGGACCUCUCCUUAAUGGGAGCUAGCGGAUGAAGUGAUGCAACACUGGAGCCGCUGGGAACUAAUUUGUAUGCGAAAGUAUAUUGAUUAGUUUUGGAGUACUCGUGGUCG
- test-context: 30 °C
# Lookup of reported self-splicing fitness (ln) keyed by entry

{"columns": ["biopolymer-sequence", "self-splicing fitness (ln)"],
 "data": [
  ["GCUAAGCAAUAUUACGGGAU", -2.86],
  ["AGGUAGCAAUAUUACGACCG", -0.101],
  ["GCCCAGCAAUAUUACGGCAA", -2.55],
  ["AAUCAGCAAUAUUACGGCUA", -0.0319],
  ["AUGAAGCAAUAUUACGGGUA", -1.01],
  ["AGAUAGCAAUAUUACGGUUU", -0.692],
  ["ACUUAGCAAUAUUACGUUUA", -1.5],
  ["GCUGAGCAAUAUUACGAAAG", -1.75],
  ["GUGAAGCAAUAUUACGAGGG", -3.74],
  ["ACACAGCAAUAUUACGGCGG", -0.95],
  ["ACCGAGCAAUAUUACGUACU", -2.31],
  ["AAGCAGCAAUAUUACGUGUU", -3.31],
  ["UUUUAGCAAUAUUACGCCGG", -1.28],
  ["UUACAGCAAUAUUACGGUCG", 0.503],
  ["GUAUAGCAAUAUUACGAACA", -2.44],
  ["GUUUAGCAAUAUUACGGGCA", -1.85],
  ["CUAGAGCAAUAUUACGCACC", -2.44],
  ["UCAAAGCAAUAUUACGCACG", -1.18],
  ["CGUUAGCAAUAUUACGGUGC", -3.11],
  ["AUGCAGCAAUAUUACGGUUC", -2.28],
  ["GGCCAGCAAUAUUACGCAUU", -0.554],
  ["GACCAGCAAUAUUACGCCUA", -0.572],
  ["CGUAAGCAAUAUUACGGCGC", -2.21],
  ["GACAAGCAAUAUUACGCAUG", -2.33],
  ["ACAGAGCAAUAUUACGAAUU", -4.27],
  ["CCCAAGCAAUAUUACGCCUU", -3.04],
  ["AUCCAGCAAUAUUACGGUUU", -1.04],
  ["AAAAAGCAAUAUUACGAGUA", -1.68],
  ["CGACAGCAAUAUUACGAGAG", -3.42],
  ["CUGAAGCAAUAUUACGACCA", -4.88],
  ["GGACAGCAAUAUUACGCGCC", -2.93],
  ["UUCCAGCAAUAUUACGGGAG", -3.38],
  ["UCACAGCAAUAUUACGACUU", -3.28],
  ["CACAAGCAAUAUUACGCAAC", -3.27],
  ["AUGAAGCAAUAUUACGCUGC", -2.7],
  ["CUAUAGCAAUAUUACGAGCU", -1.79],
  ["AAGGAGCAAUAUUACGCAAG", -1.2],
  ["ACUUAGCAAUAUUACGACUC", -1.05],
  ["GGCUAGCAAUAUUACGGCGU", -0.171],
  ["ACCAAGCAAUAUUACGUGGC", -3.68],
  ["CAAUAGCAAUAUUACGUGAG", -0.424],
  ["CACCAGCAAUAUUACGCGUG", -3.74],
  ["CUGGAGCAAUAUUACGCGCG", -2.2],
  ["AGCCAGCAAUAUUACGUACA", -3.16],
  ["GCCGAGCAAUAUUACGCUCG", -2.94],
  ["AACGAGCAAUAUUACGAGUU", -3.48],
  ["UAGUAGCAAUAUUACGCCUA", -0.556],
  ["CCUUAGCAAUAUUACGGUGA", -3.63],
  ["UCCGAGCAAUAUUACGUGAG", -2.83],
  ["UCCUAGCAAUAUUACGAGAA", -1.36],
  ["CUAGAGCAAUAUUACGUCUU", -3.52],
  ["CGAAAGCAAUAUUACGCCCA", -0.283],
  ["AUCGAGCAAUAUUACGACAA", -2.78],
  ["ACGCAGCAAUAUUACGUUGA", -1.43]
]}
